Entry source: ChEMBL document CHEMBL1143810

assaySummary: Selectivity index, ratio of IC50 for MRC5 cells to IC50 for Plasmodium falciparum FcB1
Format: functional

| structureSmilesString | valueModifier | Ratio IC50 |
| --- | --- | --- |
| COc1ccc(CN2CCN(C(=O)COc3ccc4c(=O)cc(-c5cc(C(C)(C)C)c(O)c(C(C)(C)C)c5)oc4c3)CC2)c(OC)c1OC | > | 125 |
| CCOC(=O)COc1cc(-c2cc(=O)c3c(O)cc(OCC(=O)N4CCN(Cc5ccc(O)c(OC)c5OC)CC4)cc3o2)ccc1OC | = | 16.7 |
| CCOC(=O)COc1cc(-c2cc(=O)c3c(O)cc(OCC(=O)N4CCN(C(=O)OC(C)(C)C)CC4)cc3o2)ccc1OC | = | 2.1 |
| CCOC(=O)COc1cc(-c2cc(=O)c3c(O)cc(OCC(=O)N4CCN(Cc5ccc(OC)c(OC)c5OC)CC4)cc3o2)ccc1OC | > | 140 |
| CCOC(=O)COc1cc(-c2cc(=O)c3c(O)cc(OCC(=O)N4CCN(Cc5c(OC)cc(OC)cc5OC)CC4)cc3o2)ccc1OC | = | 5 |
| CCOC(=O)COc1cc(-c2cc(=O)c3c(O)cc(OCC(=O)N4CCN(Cc5ccc(OCc6ccccc6)c(OC)c5OC)CC4)cc3o2)ccc1OC | = | 3.6 |
| CCOC(=O)COc1cc(-c2cc(=O)c3c(O)cc(OCC(=O)N4CCN(Cc5ccc(OC)cc5OC)CC4)cc3o2)ccc1OC | = | 3.3 |
